- System: rice (Oryza saliva)
- ASSAY_PROCEDURE: Test C flooded paddy test
- Type: in vivo
- CONDITION_SET: flooded paddy test, Rate 62 g/ha; scale 0 to 100 (0 no effect, 100 complete control)
RECORDED_ENDPOINT: Plant response rating, Rice
One number for each entry.

COMPOUND: CC(C)OC(=O)c1cccc(N2CCC(n3ccc(C(C)(C)C)n3)C2=O)c1 (stereo not shown)
Plant response rating, Rice: 0

Items follow; give Plant response rating, Rice for each.
1. O=C1C(n2ccc(C3CCCCC3)n2)SCN1c1cccc(C(F)(F)F)c1 (stereo not shown)
2. CCCC(C)c1ccn(C2CCN(c3cccc(C(F)(F)F)c3)C2=O)n1 (stereo not shown)
3. CCC(C)c1ccn(C2CCN(c3cccc(OC(C)C)c3)C2=O)n1 (stereo not shown)
4. O=C1C(n2ccc(C3CCC3)n2)SCN1c1cccc(OC(F)F)c1 (stereo not shown)
5. CC(C)(C)c1ccn(C2OCN(c3cccc(OC(F)(F)F)c3)C2=O)n1 (stereo not shown)
6. CC(C)(C)c1ccn(C2CCN(c3ccc(F)c(Cl)c3)C2=O)n1 (stereo not shown)

Result:
[0, 0, 20, 0, 0, 0]
